- protocol text: inhibitors of IL-1B driven NFkB p65 nuclear import, primary screen, imaging, HUVEC, IL-1B stimulus, high-content imaging (AID 796);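 also: nuclear over cytoplasmic p65 intensity ratio measured by imaging; 0% = IL-1B stimulated DMSO wells and 100% = unstimulated DMSO wells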
- setup conditions: HUVEC IL-1B NFkB p65 nuclear translocation imaging; at 2 µM; stronger effect = higher value
Out of some 94,000 compounds screened, about 410 (0.44%) were called active. This excerpt belongs to a sample that is enriched for actives.
result type: inhibition

>>> observed_measurement("Cc1cc(C)n(C(=O)CCNC(=O)c2ccccc2Cl)n1")
"0.3% (inactive)"
>>> observed_measurement("CCOC(=O)c1c(NC(=O)CSc2nnc(C)c(=O)[nH]2)sc2c1CCC2")
"7.7% (inactive)"
>>> observed_measurement("Fc1ccc(CNc2nc3ccccc3n3nnnc23)cc1")
"-20.9% (inactive)"

Please state, for each entry, its recorded inhibition.
1. COc1ccc(/C=N\NC(=O)c2sc(N)nc2C)cc1OC
2. O=C(NC1CCN(C(=S)NCc2ccco2)CC1)c1ccc(F)cc1
3. COc1cc(/C=N/Nc2nn3cnnc3c3ccccc23)cc(OC)c1OC

1. 1.2% (inactive)
2. -2.5% (inactive)
3. -1.1% (inactive)

----------
Please respond with reported inhibition for every item in the list.
- protocol text: inhibitors of IL-1B driven NFkB p65 nuclear import, primary screen, imaging, HUVEC, IL-1B stimulus, high-content imaging (AID 796);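 also: nuclear over cytoplasmic p65 intensity ratio measured by imaging; 0% = IL-1B stimulated DMSO wells and 100% = unstimulated DMSO wells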
- setup conditions: HUVEC IL-1B NFkB p65 nuclear translocation imaging; at 2 µM; stronger effect = higher value
Hit rate of the full screen: of about 94,000 compounds, about 410 (0.44%) were called active. Only a selection was taken, and actives are over-represented in it overall.

Past entries and their recorded results:
>>> observed_measurement("CC1CCCCC1NC(=O)C1CCCN1S(=O)(=O)c1cccc2nsnc12 (stereo not given)")
"-27% (inactive)"
>>> observed_measurement("CCCCOc1ccc(C(=O)NCc2ccncc2)cc1")
"-7.4% (inactive)"
>>> observed_measurement("CCOC(=O)c1cc(NC(=O)c2ccc(Cl)cc2)c(=O)oc1-c1ccccc1")
"-5.2% (inactive)"
>>> observed_measurement("O=C(Oc1ccccc1C(=S)N1CCCCC1)c1cc([N+](=O)[O-])cc([N+](=O)[O-])c1")
"-5.6% (inactive)"

Give the reported value of inhibition for this record: "COc1cc(OC)cc(C(=O)NC2CCN(C(=O)N3c4ccccc4Sc4ccccc43)CC2)c1" -1.1% (inactive)

----------
Could you please report measured inhibition for the items listed next?
- protocol text: inhibitors of IL-1B driven NFkB p65 nuclear import, primary screen, imaging, HUVEC, IL-1B stimulus, high-content imaging (AID 796);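 also: nuclear over cytoplasmic p65 intensity ratio measured by imaging; 0% = IL-1B stimulated DMSO wells and 100% = unstimulated DMSO wells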
- setup conditions: HUVEC IL-1B NFkB p65 nuclear translocation imaging; at 2 µM; stronger effect = higher value
The whole screen tested about 94,000 compounds, of which about 410 (0.44%) were called active. Shown is part of a subset that was picked to be rich in actives.
One number for each entry, in %.

Please review the following examples before continuing.
>>> observed_measurement("Cc1ccc(C(=O)/C=C/c2c(C)nn(-c3ccccc3)c2Cl)cc1")
15.3
>>> observed_measurement("O=C(CSc1nnc(-c2c[nH]c3ccccc23)o1)c1ccccc1")
11.5
>>> observed_measurement("O=C(/C=C/Sc1ncn[nH]1)c1ccc(Cl)cc1")
47.7
>>> observed_measurement("COc1ccc(CC(=O)Nc2ccc(-c3nnc(-c4ccc(C)cc4)o3)cc2)cc1")
-3.1
>>> observed_measurement("CSCCC(C(=O)NC1=NCCS1)N1C(=O)c2ccccc2C1=O (stereo not given)")
-15.1

For every listed record, write down its inhibition.
1. CCCNC(=S)NC1CC2CCCC(C1)N2CC(C)C (stereo not given)
2. COc1cc(C(=S)N2CCOCC2)cc(OC)c1OC(=O)c1cc([N+](=O)[O-])cc([N+](=O)[O-])c1
3. CCC(C)NC(=O)C1CCCN(C(=O)NC2CCCCC2)C1 (stereo not given)

-10.2
2.4
-6.5

For each entry beneath this line, provide reported inhibition.
1. O=S1(=O)C=C(SCCN2CCCC2)c2ccccc21
2. CC(C)(C)c1ccc(C(=O)CSc2ncn[nH]2)cc1
3. O=C(CSc1nnc(Cn2cnc3ccccc32)o1)c1ccccc1
4. COc1ccc(NC(=O)/C(Cl)=C(/Cl)S(=O)Cc2ccc(C)cc2)cn1 (stereo not given)
5. CCOc1ccc(Nc2nc(Cc3nnc(SCC(=O)NC4CCCC4)n3C)cs2)cc1
6. Cc1ccc(NC(=S)Nc2ncccc2C)c(C)c1
7. O=C(Nc1ccc(-n2ccnc2P(=O)(O)c2ccccc2)cc1)c1ccccc1Br

1: -1.4; 2: -29.2; 3: 98.8; 4: 81.8; 5: -8.9; 6: 8.4; 7: -9.1
